Values were extracted from the supplement of paper PMC5998384.

- System: HeLa Kyoto;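 further: synchronized HeLa Kyoto cells, proteins quantified by TMT10plex mass spectrometry, three biological replicates, mitosis taken 0.5 h after nocodazole release, G1/S directly after double thymidine block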
- assayOverview: thermal stability score vs G1/S (z-score of summed log2 fold changes over temperatures); higher = more thermally stable than in G1/S
- setupConditions: cell cycle stage: early G1 (4.5 h after nocodazole release)
propertyName: thermal stability score

sequencecode="MAMNYNAKDEVDGGPPCAPGGTAKTRRPDNTAFKQQRLPAWQPILTAGTVLPIFFIIGLIFIPIGIGIFVTSNNIREIEIDYTGTEPSSPCNKCLSPDVTPCFCTINFTLEKSFEGNVFMYYGLSNFYQNHRRYVKSRDDSQLNGDSSALLNPSKECEPYRRNEDKPIAPCGAIANSMFNDTLELFLIGNDSYPIPIALKKKGIAWWTDKNVKFRNPPGGDNLEERFKGTTKPVNWLKPVYMLDSDPDNNGFINEDFIVWMRTAALPTFRKLYRLIERKSDLHPTLPAGRYSLNVTYNYPVHYFDGRKRMILSTISWMGGKNPFLGIAYIAVGSISFLLGVVLLVINHKYRNSSNTADITI [TMEM30A]" testedon="HeLa Kyoto" measurednumber=-0.78
sequencecode="MAAVVAATALKGRGARNARVLRGILAGATANKASHNRTRALQSHSSPEGKEEPEPLSPELEYIPRKRGKNPMKAVGLAWYSLYTRTWLGYLFYRQQLRRARNRYPKGHSKTQPRLFNGVKVLPIPVLSDNYSYLIIDTQAQLAVAVDPSDPRAVQASIEKEGVTLVAILCTHKHWDHSGGNRDLSRRHRDCRVYGSPQDGIPYLTHPLCHQDVVSVGRLQIRALATPGHTQGHLVYLLDGEPYKGPSCLFSGDLLFLSGCGRTFEGNAETMLSSLDTVLGLGDDTLLWPGHEYAEENLGFAGVVEPENLARERKMQWVQRQRLERKGTCPSTLGEERSYNPFLRTHCLALQEALGPGPGPTGDDDYSRAQLLEELRRLKDMHKSK [PNKD]" testedon="HeLa Kyoto" measurednumber=0.265
